From: PubChem BioAssay (NCI)

test system: SK-MEL-2 melanoma; experiment: NCI-60 one-dose screen, 48 h (100 = growth as untreated, 0 = no growth, -100 = all killed); conditions: 10 µM unless noted
Compounds without any hit were thinned out: in the full panel of roughly 83,000, 20% have a hit. Activity calls are given as the source filed them. How the source made its calls: active means growth percent below 10; inactive means the rest.
Reported growth by item:

Record excerpt, results attached:
Requested field: growth. Item: COc1ccc(/C=N/NC(=O)c2cnn3c2NC(c2ccccc2)C3)cc1OC1CCCC1 (stereo not given) 107% (inactive)

Which growth value belongs to `COc1ccc(S(=O)(=O)c2ccc(C(N)=O)cc2)cc1NC(=O)c1[nH]c(C)c2c1CCCCC2=O` ? 74.1% (inactive)

Which value of growth has been reported for `COc1cc(C(=O)N(C(C)C)C2CCCCC2)cc(OC)c1OC` in the records? 98.5% (inactive)

What does the data say about its growth? Entry: COc1ccc(/C=N/NC(=O)c2cnn(CC(O)Cc3ccccc3)c2N)cc1OC1CCCC1 (stereo not given) 108% (inactive)

Look at this molecule and give its reported growth. `O=c1[nH]c(=O)n(Cc2ccc(F)cc2)cc1F` 111% [50 µM] (inactive)

Report growth for `COc1cc(/C=C2\C(=O)Nc3ccccc32)cc(OC)c1O` please. 50.4% (inactive)

Kindly review the next molecule as well.
// growth lookup, key: COc1cc(C2C3=C(COC3=O)N(CCO)c3cc4c(cc32)OCO4)cc(OC)c1O (stereo not given) 25% (inactive)

---

system: SN12C renal; test: NCI-60 one-dose screen, 48 h (100 = growth as untreated, 0 = no growth, -100 = all killed); settings: 10 µM unless noted
About 83,000 compounds went through this panel and 20% of them were active in at least one assay; those are over-represented in the sample as a whole.
Each record here notes measured growth.
Please state the figure in %; there is no need to write the unit.

Below: 4 compounds and their reported growth.
For `O=C1c2c(c3c4cc(Br)ccc4[nH]c3c3ccc4ccccc4c23)C(=O)N1O` , what is its reported growth? 92.2

What value of growth has been reported for the following compound? `Nc1nc(N)c(N=Nc2c(Br)cc(S(N)(=O)=O)cc2Br)c(N)n1` 103

Which growth is listed for `CCCCC(CCCC)(S(=O)(=O)CC)S(=O)(=O)CC` ? 102

Entry `CC1(C)N=C(N)N=C(N)N1c1cccc(OCCOc2cccc([N+](=O)[O-])c2)c1` has what growth? 28.8

Now, please, on to the next compound.
I would be grateful if you could share the reported growth for `COc1ccc(OC)c(/C=C2\Oc3cc(O)ccc3C2=O)c1` . 85.8

---

system: RPMI-8226 leukemia; experiment: NCI-60 one-dose screen, 48 h; details: 10 µM
About 83,000 compounds went through this panel and 20% of them were active in at least one assay; those are over-represented in the sample as a whole. Activity calls are given as the source filed them. How the source made its calls: active means growth percent below 10; inactive means the rest.
Returns: one label drawn from 1 (active), -1 (inactive)

Recorded results for 5 compounds are shown here.
Hi, sorry to bother you, what did the test record for `CC(=O)Nc1ccccc1-c1n[nH]c(=O)[nH]c1=O` ? -1

Fill in: this test's call for `c1ccc(-c2nc(N3CCOCC3)c3c4c(sc3n2)CCCCCC4)nc1` is ___ -1

Write down the call the test reported for this compound. Item: `COC(=O)c1c2c(c(C)[n+]([O-])c1C)C(=O)C=C(NCc1ccc(Cl)cc1)C2=O` 1

Which outcome was entered for the compound `FC(F)(F)c1ccc2c(c1)n1cnnc1c1nncn21` in this test? -1

GET /call?item= COc1cccc(C2CC(=O)Nc3cc4c(cc32)CCC4)c1OC (stereo not given) returns the recorded outcome of this test. -1

Next:
Test call, this compound: `Cn1c2c(cc(S(=O)(=O)c3ccccc3)c1=O)CCc1c-2cnn1-c1cccc(Cl)c1` -1

Status in this test for `Cc1cccc2c(=O)c3c(sc12)c(NCCCN)nc1ccccc13` ? 1

In this assay, the call recorded for `Cn1c(=O)c2c(-c3ccccc3F)n(-c3ccc4c(c3)OCO4)cc2n(C)c1=O` was what? -1

In this assay, the call recorded for `Clc1nc(-c2ccccn2)nc2sc3c(c12)CCCCCC3` was what? -1

Query: recorded result category for `COc1ccc(-c2cc(=O)oc3c4c(ccc23)OCN(Cc2ccc(F)cc2)C4)cc1` in this test -1
